- tgt: BRD4-BD1 (Homo sapiens (Human), UniProt O60885)
- test: AlphaLisa bromodomain binding assay, BRD4-BD1
- experimentalParameters: Table 6; read-out: BRD4(1) IC50
parameterMeasured: pIC50
Give bare numbers, as −log10 of the molar value.

# annotated cases, reported pIC50 shown
1) Cc1cnc(Nc2ccc(N3CCN(C)CC3)cc2)nc1Nc1cccc(NS(=O)(=O)C(C)(C)C)c1 [drawing 245]
6.93
2) CN1CCN(c2ccc(Nc3ncc4ccn(-c5cccc(NS(=O)(=O)C(C)(C)C)c5)c4n3)cc2Cl)CC1
5.95
3) CC(C)(C)S(=O)(=O)Nc1cccc(Nc2nc(NC3CCNC(=O)C3)nc3sccc23)c1 (centres unmarked)
5.92

Items follow; give pIC50 for each.
1. CN1CCN(c2ccc(Nc3nc4c(c(Nc5ccc6c(c5)N(S(=O)(=O)C(C)(C)C)CC6)n3)COC4)cc2)CC1
2. CC(C)(C)S(=O)(=O)Nc1cccc(-n2ccc3cnc(Nc4ccc(C(=O)NC5CCNCC5)c(F)c4)nc32)c1
3. Cc1noc(C)c1-c1cccc(-c2cn(C)c3nc(NC4CCNCC4)ncc23)c1
4. CC(C)(C)S(=O)(=O)Nc1cccc(Nc2nc(NC3CCNCC3)nc3sccc23)c1 [drawing 151]
5. CN1CCN(c2ccc(Nc3ncc4ccn(-c5cccc(NS(=O)(=O)C(C)(C)C)c5)c4n3)cc2C(N)=O)CC1
6. CN(C)C1CCN(c2ccc(Nc3ncc4ccn(-c5cccc(NS(=O)(=O)C6CC6)c5)c4n3)cc2)CC1
7. COc1cc(Nc2ncc3ccn(-c4cccc(NS(=O)(=O)C5CC5)c4)c3n2)ccc1N1CCN(C)CC1

# output
1: 5.62; 2: 6.40; 3: 5.36; 4: 7.03; 5: 6.24; 6: 6.06; 7: 5.74

Items follow; give pIC50 for each.
1. CN1CCN(c2ccc(Nc3ncc4ccn(-c5ccc(C#N)c(NS(=O)(=O)C6CC6)c5)c4n3)cc2)CC1
2. CC(C)(C)S(=O)(=O)Nc1cc(-n2ccc3cnc(Nc4ccc(N5CCNCC5)cc4)nc32)ccc1F
3. CC(C)(C)S(=O)(=O)Nc1cc(Nc2nc(NC3CCNCC3)nc3ccsc23)ccc1Cl
4. Cc1cnc(Nc2ccc(N3CCN(C)CC3)cc2)nc1Nc1cccc(NS(=O)(=O)C(C)(C)C)c1 [drawing 231]
5. CNc1ncc2c(-c3cccc(-c4c(C)noc4C)c3)c[nH]c2n1
6. Cc1cnc(NC2CCN(C)CC2)nc1Nc1cccc(NS(=O)(=O)C(C)(C)C)c1

# output
5.74
6.68
5.49
6.88
5.00
5.87

Fill in: BRD4-BD1 (Homo sapiens (Human), UniProt O60885) pIC50 for CN(C)C1CCN(c2ccc(Nc3ncc4ccn(-c5cccc(NS(=O)(=O)C6(C)CC6)c5)c4n3)cc2)CC1 = 6.20

###

- tgt: JAK2 (Homo sapiens (Human), UniProt O60674)
- Sequence (O60674 whole entry): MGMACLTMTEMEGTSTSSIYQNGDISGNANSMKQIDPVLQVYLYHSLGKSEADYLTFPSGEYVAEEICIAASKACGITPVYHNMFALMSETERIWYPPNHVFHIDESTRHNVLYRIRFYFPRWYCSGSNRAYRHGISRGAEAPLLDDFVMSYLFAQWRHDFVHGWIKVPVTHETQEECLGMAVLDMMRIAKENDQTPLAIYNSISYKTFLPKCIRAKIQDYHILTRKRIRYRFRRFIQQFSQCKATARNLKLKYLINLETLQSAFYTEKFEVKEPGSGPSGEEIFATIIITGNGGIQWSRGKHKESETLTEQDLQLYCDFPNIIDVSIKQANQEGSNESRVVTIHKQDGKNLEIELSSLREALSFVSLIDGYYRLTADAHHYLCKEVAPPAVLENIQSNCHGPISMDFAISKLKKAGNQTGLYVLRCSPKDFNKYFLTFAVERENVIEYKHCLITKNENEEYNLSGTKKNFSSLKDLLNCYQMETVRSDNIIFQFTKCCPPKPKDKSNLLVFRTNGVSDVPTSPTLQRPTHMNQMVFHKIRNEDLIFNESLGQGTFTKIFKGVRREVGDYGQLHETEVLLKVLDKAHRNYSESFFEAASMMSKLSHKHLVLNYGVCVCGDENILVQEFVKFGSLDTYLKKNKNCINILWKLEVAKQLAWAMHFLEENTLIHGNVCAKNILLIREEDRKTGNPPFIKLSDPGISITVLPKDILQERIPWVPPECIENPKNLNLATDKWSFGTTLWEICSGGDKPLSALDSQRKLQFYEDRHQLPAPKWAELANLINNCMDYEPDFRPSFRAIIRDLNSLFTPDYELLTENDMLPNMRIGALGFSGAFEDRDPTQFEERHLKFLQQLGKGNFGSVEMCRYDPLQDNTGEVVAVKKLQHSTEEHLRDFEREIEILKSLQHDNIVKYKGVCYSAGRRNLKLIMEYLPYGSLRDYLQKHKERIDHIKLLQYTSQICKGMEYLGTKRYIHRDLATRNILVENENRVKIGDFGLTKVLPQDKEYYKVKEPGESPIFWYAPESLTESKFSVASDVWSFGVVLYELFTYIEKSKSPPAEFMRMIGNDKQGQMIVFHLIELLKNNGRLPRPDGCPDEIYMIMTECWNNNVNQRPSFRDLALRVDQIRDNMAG
- test: HTRF kinase assay, JAK2
- Format: biochemical
- experimentalParameters: Table 3
parameterMeasured: IC50 (nM)
One number for each entry, in nM.

# annotated cases, reported IC50 shown
1) O=S(=O)(Nc1cccc(-n2ccc3cnc(Nc4ccc(N5CCNCC5)cc4)nc32)c1)C1CC1 [drawing 63]
2
2) CN1CCN(c2ccc(Nc3ncc4ccn(-c5cccc(NS(=O)(=O)c6ccccc6)c5)c4n3)cc2)CC1 [drawing 62]
3
3) O=S(=O)(Nc1cccc(-n2ccc3cnc(Nc4ccc(N5CCNCC5)cc4)nc32)c1)C1CC1 [drawing 68]
5

With those in mind, consider the next compound.
Consider CN1CCN(c2ccc(Nc3ncc4ccn(-c5cccc(NS(=O)(=O)C6CC6)c5)c4n3)cc2)CC1 [drawing 64] . Its measured IC50 is 4.3
